Reported IC50 values for the following compounds.
target: IP6K1 (Homo sapiens (Human), UniProt Q92551); assay: Enzyme-coupled assay of IP6K1 activity (Dipp1-coupled, malachite green Pi release); type: biochemical; conditions: enzyme-coupled assay; Table 4
Sequence (Q92551 whole entry): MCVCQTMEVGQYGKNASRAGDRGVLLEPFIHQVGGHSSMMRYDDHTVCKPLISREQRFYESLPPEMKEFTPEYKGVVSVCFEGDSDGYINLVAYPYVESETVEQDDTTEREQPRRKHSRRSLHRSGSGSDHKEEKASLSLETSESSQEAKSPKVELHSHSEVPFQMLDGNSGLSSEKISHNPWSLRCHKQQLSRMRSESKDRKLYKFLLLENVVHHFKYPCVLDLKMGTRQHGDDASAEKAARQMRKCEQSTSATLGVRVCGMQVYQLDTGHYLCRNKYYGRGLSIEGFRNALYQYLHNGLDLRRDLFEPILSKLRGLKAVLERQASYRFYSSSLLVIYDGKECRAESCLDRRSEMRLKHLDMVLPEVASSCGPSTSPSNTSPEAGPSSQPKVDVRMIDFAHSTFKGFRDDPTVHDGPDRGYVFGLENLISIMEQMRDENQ

Answered cases to consult:
| compound | IC50 |
| --- | --- |
| CC(=O)N1CCC(c2cccc(-c3onc4ccc(-c5nnn[nH]5)cc34)c2)CC1 | 10 to 100 nM |
| c1ccc(-c2onc3ccc(-n4cncn4)cc23)cc1 | 1000 to 100000 nM |
| O=C(Nc1ccc(-c2onc3ccc(-c4nnn[nH]4)cc23)cc1)C1CCCC1 | 10 to 100 nM |
| CC(C)C(=O)Nc1cccc(-c2onc3ccc(-c4nnn[nH]4)cc23)c1 | 100 to 1000 nM |

Q: Kindly indicate its recorded IC50. Item: O=C(Nc1ccc(-c2onc3ccc(-c4nnn[nH]4)cc23)cc1)C1CCCCC1
Ans: 100 to 1000 nM

Q: Kindly indicate its recorded IC50. Item: CC1(C(=O)N2CCC(Oc3cccc(-c4onc5ccc(-c6nnn[nH]6)cc45)c3)CC2)COC1
Ans: 100 to 1000 nM

Q: Kindly indicate its recorded IC50. Item: CC(C)(C)OC(=O)N1CCCC1C(=O)N1CCC(c2cccc(-c3onc4ccc(-c5nnn[nH]5)cc34)c2)CC1 (centres unmarked)
Ans: 100 to 1000 nM

Q: Kindly indicate its recorded IC50. Item: c1cc(OCCN2CCOCC2)cc(-c2onc3ccc(-c4nnn[nH]4)cc23)c1
Ans: 10 to 100 nM
